system: Plasmodium berghei; assay: Screen against P. berghei liver stage (PbLuc), transformed with Luciferase, at 2uM; type: functional, HepG2; details: tested at 2 uM
About 2,700 (4%) of roughly 68,000 compounds showed an effect of 50% or more. The entries come from a sample that favours strong results as a whole.
Rule: INHIBITION below -20% gives rule met, anything at or above gives rule not met.

1) Cc1nnc(N2CC[C@H]3C[C@H](C(=O)N(C)C)O[C@@H]3C2)s1: rule not met
2) CN(C)Cc1ccc(C2CCCCN2C(=O)c2ncccc2O)cc1 (stereo unspecified): rule not met
3) O=C(Cn1nc(C(F)(F)F)c(Br)c1C1CC1)N1CCOCC1: rule not met
4) O=C(CCCOc1ccccc1F)Nc1cc[nH]n1: rule not met
5) Cc1nc(C(=O)N2CCCCC2c2ccc(CN(C)C)cc2)c(C)o1 (stereo unspecified): rule not met
6) NC(=O)C1CN(C(=O)Nc2ccccc2SC(F)(F)F)CCO1 (stereo unspecified): rule met
7) COC(=O)CC(NC(=O)c1ccc(OC)cc1OC)c1cccs1 (stereo unspecified): rule not met
8) Cn1c(=O)[nH]c2cc(C(=O)OCC(F)F)ccc21: rule met
9) Cn1cc(C2CC3(CCN(C(=O)c4cccs4)CC3)NC2=O)cn1 (stereo unspecified): rule not met
10) COc1ccccc1C(=O)NC(CC(=O)O)c1cccs1 (stereo unspecified): rule not met
11) O=S(=O)(CCN1CCOC(Cn2cccn2)C1)c1ccccc1 (stereo unspecified): rule met
